Assay overview: NCI Yeast Anticancer Drug Screen. Data for the rad14 strain (AID 159);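 further: 0% = growth of vehicle-treated control cultures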
Stated conditions: S. cerevisiae rad14 strain growth inhibition; at 3.7 µM; hits give high values
About 79,000 compounds went through this panel and 15% of them were active in at least one assay; those are over-represented in the sample as a whole. Active and inactive are the calls of the source. No stated cut-off is given here; in the data, active means growth inhibition above about 70%; inactive means the rest.
# growth inhibition annotations
Measure: growth inhibition

| Compound | Measure | Value reported |
| --- | --- | --- |
| COC1=C(N=[N+]=[N-])C(=O)c2ncccc2C1=O | growth inhibition | 10% (inactive) |
| CCN(CC)CCSc1c2ccccc2nc2cc(NCC(=O)Nc3ccccc3-c3ccccc3NC(=O)CNc3ccc4c(SCCN(CC)CC)c5ccccc5nc4c3)ccc12 | growth inhibition | -15% (inactive) |
| C[Si](C)(C)Cc1ccccc1C(=O)O | growth inhibition | -4% (inactive) |
| O=C1c2ccccc2-c2ccc(NC(=O)C3CCCCC3C(=O)O)cc21 (configuration not stated) | growth inhibition | -12% (inactive) |
| CCOC(=O)C1=C(C)NC(C)=C(C(=O)OCC)C1c1ccc(Cl)cc1 | growth inhibition | -6% (inactive) |
| COc1ccc(C(=O)OCCc2ccccc2)cc1 | growth inhibition | 0% (inactive) |
| O=C(c1c(F)c(F)c(F)c(F)c1F)c1c(F)c(F)c(F)c(F)c1F | growth inhibition | 55% (inactive) |
| O=C1C(C(O)(C(F)(F)F)C(F)(F)F)CCC1C(O)(C(F)(F)F)C(F)(F)F (configuration not stated) | growth inhibition | 6% (inactive) |
| O=C1C=CC(=Nc2ccc3c(c2)Cc2cc(Cl)ccc2-3)O1 | growth inhibition | 32% (inactive) |
| CN(C)CCn1c2ccccc2c2nc3cc4ccccc4cc3nc21 | growth inhibition | 7% (inactive) |
| CCOc1ccc2ccc3cccnc3c2n1 | growth inhibition | 4% (inactive) |
| N=c1oc2ccccc2cc1-c1nc2ccccc2[nH]1 | growth inhibition | 11% (inactive) |
| Cc1ccc(N(C=O)c2c([N+](=O)[O-])cc([N+](=O)[O-])c3c2=[N+]([O-])CN=3)cc1 | growth inhibition | 1% (inactive) |
| CN(C)/N=N/c1nc[nH]c1C(N)=O | growth inhibition | -2% (inactive) |
| Oc1ccc(Br)cc1C=Nc1cccc(C(F)(F)F)c1 | growth inhibition | 13% (inactive) |
| O=C(/C(=C/c1ccccc1)CBr)c1ccccc1 | growth inhibition | 9% (inactive) |
| CC[C@@]1(OC(=O)CN(C)C)C(=O)OCc2c1cc1n(c2=O)Cc2cc3ccccc3nc2-1 | growth inhibition | 8% (inactive) |
| CC(C)(C(=O)NN)c1ccccc1 | growth inhibition | -4% (inactive) |
| Cc1cc(NC(=S)SCc2ccc(Cl)cc2)ccc1Cl | growth inhibition | 22% (inactive) |
| Nc1cccc2cc(Cl)cnc12 | growth inhibition | -31% (inactive) |
| Nc1ccc2cc(Br)c3ccccc3c2c1 | growth inhibition | 0% (inactive) |
| O=C(CCCN1CCC2(CC1)OC(=O)N(c1ccccc1)C2=O)c1ccccc1 | growth inhibition | 63% (inactive) |
| C#CC1=CC(=O)C(OC)=CC1=O | growth inhibition | 21% (inactive) |
| O=c1[nH]c(=O)n(CCCO)cc1F | growth inhibition | -19% (inactive) |
| O=C(N/N=C/c1ccc2c(c1)CCC2)c1ccccc1[N+](=O)[O-] | growth inhibition | -8% (inactive) |
| CN(NC(=O)/C(=C/C=C/c1ccccc1)NC(=O)c1ccccc1)C1=C(Cl)C(=O)[N+](c2ccccc2)=CC1 | growth inhibition | -4% (inactive) |
| CN1CCN(c2ccc3nc(-c4ccc5nc(-c6ccc(O)cc6)[nH]c5c4)[nH]c3c2)CC1 | growth inhibition | -16% (inactive) |
| CCC(C)/C(C)=N/NC(N)=O (configuration not stated) | growth inhibition | 0% (inactive) |
| Nc1c([N+](=O)[O-])cc2c3c(cccc13)CC2 | growth inhibition | 14% (inactive) |
| COc1cc(C(C)(C)C)cc(OC)c1C(O)(c1c(OC)cc(C(C)(C)C)cc1OC)c1c(OC)cc(C(C)(C)C)cc1OC | growth inhibition | -28% (inactive) |
| O=S(=O)(O)CC[S][Sn]([S]CCS(=O)(=O)O)([c]1ccccc1)[c]1ccccc1 | growth inhibition | 35% (inactive) |
| CCCCCC/C(C)=N/Nc1ccc([N+](=O)[O-])cc1[N+](=O)[O-] | growth inhibition | -2% (inactive) |
